test system: Leishmania infantum; test: Antileishmanial activity against GFP-tagged at COOH terminus Leishmania infantum promastigotes overexpressing LiABCG6 assessed as cell viability after 72 hrs by MTT assay; assay type: functional, organism-based
Result type: IC50 (µM)
// units = µM; emit number, no label

[[record]]
compound = "CCCCCCCCCCCCCCCCOP(=O)([O-])OCC[N+](C)(C)C [MILTEFOSINE]"
result_type = "IC50"
numeric_result = 13.6

[[record]]
compound = "CCCCCCCCCCCCCCCCCCOP(=O)([O-])OC1CC[N+](C)(C)CC1 [PERIFOSINE]"
result_type = "IC50"
numeric_result = 12.2

[[record]]
compound = "CCN(CC)CCCCCCNc1cc(OC)cc2c(C)ccnc12 [SITAMAQUINE]"
result_type = "IC50"
numeric_result = 15.2


Then there is this compound:
Dear colleague, I am looking for the recorded IC50 of the following compound: CCCCCCCCCCCCCCCCCCOCC(COP(=O)([O-])OCC[N+](C)(C)C)OC (centres undefined) [EDELFOSINE]
12.9
